# System: mouse Mcl-1 with truncations of 151 amino acid residues at its N-terminus and 23 residues at its C-terminus (mouse) (UniProt P97287)
# Sequence (P97287 152-308): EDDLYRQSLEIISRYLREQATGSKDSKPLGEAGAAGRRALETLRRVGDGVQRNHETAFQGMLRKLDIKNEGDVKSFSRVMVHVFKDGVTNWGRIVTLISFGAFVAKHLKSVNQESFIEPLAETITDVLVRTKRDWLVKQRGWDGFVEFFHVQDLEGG
# Assay summary: competition phage ELISA
FLAG = FLAG tag
Give Fold/wt for every item shown.
// note: answer is a bare numeric in fold

# return recorded Fold/wt for input {FLAG}-RAELPPEFEAQLRKIGDKVYCTWSAP-{GGGT-g3(249-406)} [mNoxaA BH3 A9E, phage-displayed]
2

# return recorded Fold/wt for input QEDIIRNIARHLAQAGDSMDRSIPPG [Bid BH3 V15A, phage-displayed]
2

# return recorded Fold/wt for input PSATMGQVGRQLAIIGDDINRRYDSE [Bak BH3 S3A, phage-displayed]
1

# return recorded Fold/wt for input {FLAG}-RAELPPEFAAQLAKIGDKVYCTWSAP-{GGGT-g3(249-406)} [mNoxaA BH3 R13A, phage-displayed]
1

# return recorded Fold/wt for input QEDIIRNIARHLAQVGDSMDRSIPAG [Bid BH3 P25A, phage-displayed]
1

# return recorded Fold/wt for input {FLAG}-REELPPEFAAQLRKIGDKVYCTWSAP-{GGGT-g3(249-406)} [mNoxaA BH3 A2E, phage-displayed]
1

# return recorded Fold/wt for input {FLAG}-RAELPPEFAAQARKIGDKVYCTWSAP-{GGGT-g3(249-406)} [mNoxaA BH3 L12A, phage-displayed]
2

# return recorded Fold/wt for input QEDIIRNIARHLAQVGDSMDRSAPPG [Bid BH3 I23A, phage-displayed]
1

# return recorded Fold/wt for input PSSTMGQVGAQLAIIGDDINRRYDSE [Bak BH3 R10A, phage-displayed]
1

# return recorded Fold/wt for input QEDIIRNIARALAQVGDSMDRSIPPG [Bid BH3 H11A, phage-displayed]
1

# return recorded Fold/wt for input PSSTMGQVGRQLAAIGDDINRRYDSE [Bak BH3 I14A, phage-displayed]
1

# return recorded Fold/wt for input {FLAG}-RAELPPEFAAQLRKIGDKVYATWSAP-{GGGT-g3(249-406)} [mNoxaA BH3 C21A, phage-displayed]
1
